For each of the compounds below, state its composite z-score.
# protocol-description: small-molecule binders of probe aLefty1, primary screen, biochemical, small-molecule microarray, 635/667 nm fluorescence (AID 1153);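 note: score merges spot fluorescence with signal-to-noise ratio from the scanned slide images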
# experimental-context: higher = more signal

Output composite z-score of COC(=O)CC=C[C@@H](C)[C@@H](C=NO[C@@H](C)c1cc(-c2c(C)cc(C)cc2C)no1)OC
0.0004

Output composite z-score of CC(C)=NOCc1cccc(-c2cc(-c3ccccc3)no2)c1
0.194

Output composite z-score of CC(CCC(=O)OC[C@H]1O[C@H](C#Cc2ccccc2)C=C[C@@H]1Oc1ccc(C)cc1)=NOC[C@@H](O)COCc1ccco1
-0.839

Output composite z-score of COc1ccc(O[C@H]2C=C[C@@H](c3ccccc3)O[C@@H]2COC(=O)CCC(C)=NOC(C)CN2CCCCc3nc(C)c(C)cc32)cc1 (some centres not stated)
-0.584

Output composite z-score of NCCCCCNC(=O)[C@@H]1C[C@@H]2C(=O)N3CCC[C@H]3C(=O)N2[C@@H]1c1cccc(OCCO)c1
1.55

Output composite z-score of CCN1C(=O)[C@H]2[C@H]3[C@H](O)[C@H](O)CC(=NOC[C@@H](C)[C@H](OCc4ccccc4)C(C)C)[C@@H]3CC[C@H]2C1=O
-0.144

Output composite z-score of CS(=O)(=O)CCOC(=O)C1=CC(CCCO)=CC(c2cccs2)N(Cc2cccc(OC(F)(F)F)c2)C=C1C(=O)OCCS(C)(=O)=O (configuration not stated)
0.217

Output composite z-score of CO[C@H]1COC(=O)[C@H](C)COC(=O)CC=C[C@@H](C)[C@H](OC)COC(=O)CC=C[C@@H]1C
-0.196

Output composite z-score of COC(=O)C1=CCC(c2cccc(Cl)c2)O1 (configuration not stated)
-0.0111

Output composite z-score of COCC(=C=CC[C@@H](O)c1ccccc1OCCO)CCO
-0.0501

Output composite z-score of COc1ccc(O[C@@H]2[C@H](O)CO[C@H]2C=CC#Cc2ccccc2)cc1
-0.147

Output composite z-score of CO[C@@H]1COC(=O)CC=C[C@@H](C)COC(=O)[C@H](COCc2ccccc2)NC(=O)CC=C[C@H]1C
-0.363

Output composite z-score of CC(C)(C)OC(=O)CC[C@]1(C(=O)NCc2ccccc2)N=C(c2ccc(OCCCO)cc2)O[C@H]1c1ccccc1
1.18

Output composite z-score of COC(=O)CC=C[C@@H](C)[C@H](OC)c1ccccc1Br
-0.245

Output composite z-score of CO[C@H]1COC(=O)[C@H](C)NC(=O)[C@@H](C)COC(=O)CC=C[C@@H]1C
-0.251

Output composite z-score of COC(=O)[C@@H]1CC[C@H](C)[C@@H](c2ccc(C)cc2)N1C(=O)c1ccc(C=NOC[C@@H](O)COCc2ccco2)cc1
-0.255

Output composite z-score of CCOC(=O)C[C@H]1[C@H](OC(=O)c2cc3ccccc3oc2=O)[C@@H](NC(=O)c2ccc3ccccc3n2)c2cc(OCCCO)ccc2N1C(=O)c1ccccc1
0.0793

Output composite z-score of COC(=O)[C@H](C)NC(=O)CCC1CC(OC(=O)NCc2cccc3ccccc23)CC2(CCCC(COC(=O)NCCc3ccc(Cl)cc3)O2)O1 (some centres not stated)
-0.375

Output composite z-score of O=C1[C@H]2[C@H]3[C@H](O)[C@H](O)CC(=NO[C@@H]4O[C@H](CO)[C@@H](O)[C@H](O)[C@H]4O)[C@H]3CC[C@H]2C(=O)N1Cc1ccc2c(c1)OCO2
0.122

Output composite z-score of COc1ccc([Si](C)(C)[C@H]2[C@H](CC(=O)N3CCC[C@H]3CO)O[C@@]3(C(=O)N(Cc4cccc(N5C(=O)COc6ccccc65)c4)c4ccccc43)[C@@H]2C)cc1
0.169

Output composite z-score of C=CC[C@@H]1C=C[C@H](ON=C(C)CCN2CCc3nc(CC)c(CC)cc3C2)[C@@H](CO)O1
0.288

Output composite z-score of CCCNC(=O)[C@@H]1c2ccccc2C(=O)N(c2ccc(C)cn2)[C@H]1c1ccc(CO)cc1
-0.303

Output composite z-score of CCCCc1nc2c(c3c1C[C@H](C)OC3)CN(CCC(C)C)CC2
-0.106

Output composite z-score of O=C1[C@H]2[C@H]3[C@H](O)[C@H](O)CC(=NOC[C@@H](O)COCc4ccco4)[C@H]3CC[C@H]2C(=O)N1C1CCCCC1
0.0245

Output composite z-score of CN(C)c1ccc(C(O)C2C=CC3C(=O)N(c4ccccc4)C(=O)C3N2Nc2ccccc2F)cc1 (configuration not stated)
0.284

Output composite z-score of CC(C)[C@H](NC(=O)OC(C)(C)C)[C@@H](O)CC(=O)OC(C)(C)C
-0.0197

Output composite z-score of COCCCNC(=O)[C@]1(Cc2ccccc2)N=C(c2ccc(OCCCO)cc2)O[C@@H]1c1ccccc1
0.301

Output composite z-score of CCN1C(=O)[C@H]2[C@H]3[C@H](O)[C@H](O)CC(=NOCc4ccccc4)[C@H]3CC[C@H]2C1=O
-0.276

Output composite z-score of CC(C)=NOCc1ccc(-c2cc(-c3ccccc3)no2)cc1
-0.283

Output composite z-score of O=C1[C@H]2[C@H]3[C@H](O)[C@H](O)CC(=NOCc4ccccc4)[C@H]3CC[C@H]2C(=O)N1c1ccc(F)cc1F
-0.761

Output composite z-score of CCOC(=O)[C@H](CC(C)C)NC(=O)CCC1CC(OC(=O)NCCc2ccc(F)cc2)CC2(CCCC(COC(=O)NCc3ccccc3)O2)O1 (some centres not stated)
0.0536

Output composite z-score of COc1ccccc1CN1C(=O)c2ccccc2[C@@H](C(=O)NCC(F)(F)F)[C@@H]1c1ccc(CO)cc1
-0.242
